Values compiled from patent US10670605B2.

study-target: cysteines in MDA-MB-231 and Ramos cells (Homo sapiens)
Sequence (Q15084 20-440): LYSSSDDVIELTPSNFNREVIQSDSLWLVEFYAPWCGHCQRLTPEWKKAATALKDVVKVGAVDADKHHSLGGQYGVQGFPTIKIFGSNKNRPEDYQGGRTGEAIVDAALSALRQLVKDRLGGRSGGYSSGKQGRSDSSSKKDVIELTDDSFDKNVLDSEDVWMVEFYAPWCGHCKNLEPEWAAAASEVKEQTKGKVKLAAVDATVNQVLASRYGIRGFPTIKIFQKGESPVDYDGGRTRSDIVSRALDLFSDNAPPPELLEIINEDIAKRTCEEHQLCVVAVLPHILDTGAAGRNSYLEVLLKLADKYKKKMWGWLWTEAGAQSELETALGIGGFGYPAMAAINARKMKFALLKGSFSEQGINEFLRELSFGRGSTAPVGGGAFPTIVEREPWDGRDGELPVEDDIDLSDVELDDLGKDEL
procedure-summary: Competitive isoTOP-ABPP in situ (fragment-treated cells)
Format: cell-based
conditions: 200 μM, insitu, 231
assay-readout: isoTOP-ABPP ratio Q15084_C55
One number for each entry.

Provide isoTOP-ABPP ratio Q15084_C55 values for the following items, in order.
1. CC1CCc2ccccc2N1C(=O)CCl (stereo not shown)
2. Cc1ccc(C=C(C#N)C(=O)NCCN2CCOCC2)cc1
3. O=C(CCl)Nc1cccc2ncccc12

1: 2.0; 2: 0.9; 3: 5.0

Provide isoTOP-ABPP ratio Q15084_C55 values for the following items, in order.
1. O=C(CCl)NC12CC3CC(CC(C3)C1)C2
2. C=CC(=O)N(Cc1cccnc1)c1cc(C(F)(F)F)cc(C(F)(F)F)c1

1. 0.9
2. 0.7

Provide isoTOP-ABPP ratio Q15084_C55 values for the following items, in order.
1. CC(C)CCOCCNC(=O)CCl
2. O=C(CCl)NC(=O)NC12CC3CC(CC(C3)C1)C2
3. O=C(CCl)N1CCN(S(=O)(=O)c2ccccc2F)CC1
4. C=CC(=O)Nc1cc(F)c(N2CCN(C(=O)OC(C)(C)C)CC2)c(F)c1
5. COc1ccccc1OCCNC(=O)CCl

1.2
15.4
3.1
0.8
1.4

====

Record form. Attribute: isoTOP-ABPP ratio, cysteine P53634_C258. Fill in for each entry.
study-target: cysteines in MDA-MB-231 and Ramos cells (Homo sapiens)
procedure-summary: Competitive isoTOP-ABPP in situ (fragment-treated cells)
Assay type: cell-based
conditions: 200 μM, insitu, 231
Give bare numbers.

Answered cases to consult:
1. O=C(CCl)NC12CC3CC(CC(C3)C1)C2: 2.8
2. O=C(CCl)NC(=O)NC12CC3CC(CC(C3)C1)C2: 13.4
3. O=C(CCl)N1CCN(S(=O)(=O)c2ccccc2F)CC1: 5.5

Recorded isoTOP-ABPP ratio, cysteine P53634_C258 for O=C(CCl)NCCc1c[nH]c2ccccc12 , please?
1.6

====

study-target: cysteines in MDA-MB-231 and Ramos cells (Homo sapiens)
procedure-summary: Competitive isoTOP-ABPP in situ (fragment-treated cells)
Type: cell-based
conditions: 200 μM, insitu, 231
# if measured isoTOP-ABPP ratio Q9BRF8_C54 < 1: criterion met  # else: criterion not met

1. O=C(CCl)NCCc1c[nH]c2ccccc12: criterion not met
2. O=C(CCl)NC(=O)NC12CC3CC(CC(C3)C1)C2: criterion not met
3. Cc1ccc(C=C(C#N)C(=O)NCCN2CCOCC2)cc1: criterion met
4. CC1CCc2ccccc2N1C(=O)CCl (centres unmarked): criterion not met

Is isoTOP-ABPP ratio Q9BRF8_C54 strictly under 1 for the entry O=C(CCl)N1CCN(S(=O)(=O)c2ccccc2F)CC1 ?
criterion not met
